Catalogue of compounds with associated activation
# TEST_SYSTEM: Sphingosine 1-phosphate receptor 1 (Homo sapiens)
# MEASUREMENT_DESCRIPTION: S1P1 agonists and agonism potentiators, primary screen, cell-based, primary and confirmation screens, CRE-bla reporter (AID 449);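 note: forskolin at 4 µM as EC80 and the EC20 agonist is SEW2871; 100% = SEW2871 at its EC100 plus forskolin at EC80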
# SETUP_CONDITIONS: S1P1 CRE-bla cells, forskolin, beta-lactamase FRET, potentiator mode; at 9.5 µM; stronger effect = higher value; 100% = saturating reference agonist, 0% = basal; S1P1 agonist co-added at EC20, 2 nM
The whole screen tested about 56,000 compounds, of which about 320 (0.57%) were called active. Many of the other results were omitted from the sample, so actives are more common in it than they were.
Entry rule: numbers only, all in %.

For orientation, consider the following solved cases.
>  <COMPOUND>
COCCOC(=O)C1=C(C)N=c2s/c(=C\c3cccs3)c(=O)n2C1c1cccs1 (centres undefined)

>  <activation / %>
2.2

$$$$
>  <COMPOUND>
COc1ccc(OCC(=O)OCC(=O)Nc2ccc(S(=O)(=O)N3CCCCC3)cc2)cc1

>  <activation / %>
-8.9

$$$$

Task: Given the compound CCSC1(SCC)N=C(N)C2(C#N)C(c3ccccc3)NC(C)=CC12C#N (centres undefined) , what is its reported activation?
Result: 2.3

Task: Given the compound CCCn1c(O)c(CN2CCCC(C)C2)c(C)c(C#N)c1=O (centres undefined) , what is its reported activation?
Result: 1

Task: Given the compound "CC(=O)N1CCN(C(=O)c2cccc(S(=O)(=O)Nc3ccc(C)cc3)c2)CC1" , what is its reported activation?
Result: -12.2

Task: Given the compound O=C1c2ccccc2C(O)N1Cc1ccccc1Cl (centres undefined) , what is its reported activation?
Result: 15.2

Task: Given the compound COc1cccc(C2/C(=C(/O)c3ccc(F)cc3)C(=O)C(=O)N2CCN(C)C)c1 (centres undefined) , what is its reported activation?
Result: -5.8

Task: Given the compound "Cc1cc(C(=O)N2CCN(c3ccccn3)CC2)c(C)o1" , what is its reported activation?
Result: -7.8

Task: Given the compound "COc1cccc(N(CC(=O)Nc2cccc(F)c2)S(C)(=O)=O)c1" , what is its reported activation?
Result: 13.1

Task: Given the compound O=C1CC(c2cccc(Br)c2)C2=C(CCCC2=O)N1 (centres undefined) , what is its reported activation?
Result: -6.5

Task: Given the compound "Cc1c2cn[nH]c(=O)c2c(C)n1Cc1ccc(F)cc1" , what is its reported activation?
Result: -6.4

Task: Given the compound "Cn1c2c(c(=O)n(C)c1=O)CN(Cc1ccco1)CN2" , what is its reported activation?
Result: -5.4

Task: Given the compound CCC1(C)N(O)C(C)(C)C(c2ccc(OC)cc2)=[N+]1[O-] (centres undefined) , what is its reported activation?
Result: -9.9

Task: Given the compound "O=S(=O)(Nc1ccc2nc(-c3ccco3)[nH]c2c1)c1ccccc1" , what is its reported activation?
Result: 5.9

Task: Given the compound "CC(C)Cc1cc(C(=O)NCCc2ccccc2)no1" , what is its reported activation?
Result: 20.9

Task: Given the compound "O=C(CCCOc1ccccc1)Nc1cccc(C(=O)O)c1" , what is its reported activation?
Result: 2.3

====

Catalogue of compounds with associated activation
# TEST_SYSTEM: Sphingosine 1-phosphate receptor 1 (Homo sapiens) (UniProt P21453)
# Sequence (P21453 whole entry, looked up): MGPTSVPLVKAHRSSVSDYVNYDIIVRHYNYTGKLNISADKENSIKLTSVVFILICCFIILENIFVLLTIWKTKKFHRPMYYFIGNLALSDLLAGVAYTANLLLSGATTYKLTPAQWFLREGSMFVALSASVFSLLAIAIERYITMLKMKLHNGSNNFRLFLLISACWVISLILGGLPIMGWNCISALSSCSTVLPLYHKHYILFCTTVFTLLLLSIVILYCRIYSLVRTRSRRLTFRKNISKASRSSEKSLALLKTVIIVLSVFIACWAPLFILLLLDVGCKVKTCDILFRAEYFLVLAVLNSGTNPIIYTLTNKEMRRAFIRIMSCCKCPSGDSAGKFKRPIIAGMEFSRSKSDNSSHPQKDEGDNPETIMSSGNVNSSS
# MEASUREMENT_DESCRIPTION: S1P1 agonists and agonism potentiators, primary screen, cell-based, primary and confirmation screens, CRE-bla reporter (AID 449);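 note: forskolin at 4 µM as EC80 and the EC20 agonist is SEW2871; 100% = SEW2871 at its EC100 plus forskolin at EC80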
# SETUP_CONDITIONS: S1P1 CRE-bla cells, forskolin, beta-lactamase FRET, potentiator mode; at 9.5 µM; stronger effect = higher value; 100% = saturating reference agonist, 0% = basal; S1P1 agonist co-added at EC20, 2 nM
Out of some 56,000 compounds screened, about 320 (0.57%) were called active. The sample as a whole holds a higher share of actives than the screen did.
Entry rule: numbers only, all in %.

For orientation, consider the following solved cases.
>  <COMPOUND>
CSc1nnc(CNC(=O)c2ccccc2)n1-c1ccc(F)cc1

>  <activation / %>
-11.1

$$$$
>  <COMPOUND>
COC(=O)c1ccc2c(=O)n(CC3CCCO3)c(=S)[nH]c2c1 (stereo not drawn)

>  <activation / %>
-12.1

$$$$

// next item, activation requested
Task: Given the compound CC1CCCN(Cc2nc3c(c(=O)n(C)c(=O)n3C)n2Cc2cccc3ccccc23)C1 (stereo not drawn) , what is its reported activation?
Result: 10.7
